- Assay comment: Phase 1 combination study: MK-2206 pharmacokinetics
- Type: in vivo, human
- Particulars: human, plasma, oral, first dose; arm 2 docetaxel 60 mg/m^2; MK-2206 90 mg Q3W; 3 patients; read-out: t 1/2, harmonic mean ± pseudo SD (converted)
Result type: half-life (h)

Compound | Result type | Measurement
NC1(c2ccc(-c3nc4ccn5c(=O)[nH]nc5c4cc3-c3ccccc3)cc2)CCC1 [MK-2206] | half-life | 105

====

- Assay comment: Phase 1 combination study: MK-2206 pharmacokinetics
- Assay type: in vivo, human
- Particulars: human, plasma, oral, first dose; arm 1 carboplatin AUC 6 + paclitaxel 200 mg/m^2; MK-2206 90 mg Q3W; 5 patients; read-out: T max, median (range)
- Protocol: For the Q3W schedule, samples were taken in cycle 1 on days 1 to 3 as per the QOD schedule, then on days 5, 7, 15, and in cycle 2 on day 1. […] Docetaxel PK samples were analyzed in view of the DLT of febrile neutropenia observed in arm 2; however, PK parameters, such as half-life (t1/2) or systemic exposure of paclitaxel, docetaxel, carboplatin, and erlotinib, could not be evaluated due to the sparse blood sampling design used in this study. […]

Entry smiles | Tmax
NC1(c2ccc(-c3nc4ccn5c(=O)[nH]nc5c4cc3-c3ccccc3)cc2)CCC1 | 6 h
